- Tested on: G. lamblia trophozoites (luciferase expressing, WBC6)
- measurement.protocol: microbe, parasite or virus in culture
- Type: cell-based, Giardia lamblia
- details: initial Pathogen Box screen, single concentration 16 µM, inhibition compared to DMSO wells
Outcome: fulfilled for Giardia (16 uM) Mean % inhibition of at least 10%; not fulfilled for anything lower.

{"columns": ["compound", "tgt", "assigned.category"],
 "data": [
  ["OC[C@H]1O[C@@H](n2c3ccc(Cl)cc3c3c(-c4cc5ccccc5o4)ncnc32)C(O)[C@H]1O (some centres unmarked)", "G. lamblia trophozoites (luciferase expressing, WBC6)", "not fulfilled"],
  ["Cc1nc(-c2ccccn2)nc(N2CCC(Cc3ccccc3)C2)c1Cl (centres unmarked)", "G. lamblia trophozoites (luciferase expressing, WBC6)", "fulfilled"],
  ["COc1cc(C(F)(F)F)nc2ccc(C)c(N)c12", "G. lamblia trophozoites (luciferase expressing, WBC6)", "fulfilled"],
  ["Clc1ccc(-n2cc(COc3ccnc4ccccc34)nn2)cc1", "G. lamblia trophozoites (luciferase expressing, WBC6)", "fulfilled"]
]}
